Target: T1, Cynomolgus monkey CLDN18.2 (cynomolgus monkey)
T1 chain: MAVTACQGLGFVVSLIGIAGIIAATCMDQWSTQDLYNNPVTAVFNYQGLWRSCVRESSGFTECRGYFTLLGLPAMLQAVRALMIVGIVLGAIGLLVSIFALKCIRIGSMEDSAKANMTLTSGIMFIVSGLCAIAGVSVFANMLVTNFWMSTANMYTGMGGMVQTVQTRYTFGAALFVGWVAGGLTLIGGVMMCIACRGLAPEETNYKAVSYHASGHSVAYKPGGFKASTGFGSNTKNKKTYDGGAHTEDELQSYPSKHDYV
Assay: FACS on 293T-cynomolgus monkey CLDN18.2 cells (FIG. 4)
valueType: binding result

- c5E6 (antibody, V domains shown) VH: EVQLQQSGPELVKPGASVKMSCKASGYTFTNYVMNWVKQKPGQGLEWIGYINPYNDGTKYNERFKGKATLTSDKSSSTAFMEVSSLTSEDSAVYYCARLYRGNAMDYWGQGTSVTVSS VL: DIVMTQSPSSLTVTVREKVTLSCKSSQSLLNSGNQKNYLTWYQQKPGQPPKLLIYWASTRESGVPDRFTGSGSGTDFTLTISSVQAEDLAVYYCQNVYIYPFTFGAGTKLELKR: binds
